Test: Cytotoxicity against human WM3211 cells after 96 hrs by trypan blue exclusion assay
Type: functional, cell-based
Settings: WM3211, 96 h
MEASURED_PARAMETER: IC50

>  <COMPOUND>
COc1cc(OC)c(/C=C/S(=O)(=O)Cc2ccc(OC)c(NCC(=O)[O-])c2)c(OC)c1.[Na+] [RIGOSERTIB SODIUM]

>  <MEASURED_PARAMETER>
IC50

>  <RESULT>
0.075 µM

$$$$

* * *

Assay: Cytotoxicity against human WM983A cells after 96 hrs by trypan blue exclusion assay
Assay type: functional, cell-based
MEASURED_PARAMETER: IC50 (nM)

>  <MOLECULE>
COc1cc(OC)c(/C=C/S(=O)(=O)Cc2ccc(OC)c(NCC(=O)[O-])c2)c(OC)c1.[Na+] [RIGOSERTIB SODIUM]

>  <OUTPUT_UNIT>
nM

>  <READOUT_NUMBER>
40

$$$$

* * *

System: NCI-H157
Experiment: Cytotoxicity against human NCI-H157 cells after 96 hrs by trypan blue exclusion assay
Assay type: functional, cell-based
Conditions: NCI-H157, 96 h

>  <MOLECULE>
COc1cc(OC)c(/C=C/S(=O)(=O)Cc2ccc(OC)c(NCC(=O)[O-])c2)c(OC)c1.[Na+] [RIGOSERTIB SODIUM]

>  <IC50 / µM>
0.08

$$$$
>  <MOLECULE>
COc1cc(OC)c(/C=C/S(=O)(=O)Cc2ccc(OC)c(N)c2)c(OC)c1

>  <IC50 / µM>
0.004

$$$$

* * *

System: Bel-7402
Assay: Cytotoxicity against human Bel7402 cells after 96 hrs by trypan blue exclusion assay
Format: functional, cell-based
Details: Bel-7402, 96 h

>  <MOLECULE>
COc1cc(OC)c(/C=C/S(=O)(=O)Cc2ccc(OC)c(NCC(=O)[O-])c2)c(OC)c1.[Na+] [RIGOSERTIB SODIUM]

>  <TESTED_ON>
Bel-7402

>  <OUTPUT_UNIT>
nM

>  <IC50>
100

$$$$
